Test system: HeLa
Assay: Cell Proliferation Inhibition Assay (14C-thymidine incorporation), HeLa
Assay type: cell-based
Settings: Homo sapiens
observable: pIC50
For clarity, pIC50 is expressed as the negative log10 of concentration in mol/L.

Challenge: Read the entry CN1CCN(Cc2ccc(Nc3nc4ncnc(Nc5ccc(OCc6cccc(F)c6)c(Cl)c5)c4s3)cc2)CC1 [Cpd 68] and write its reported pIC50.
Response given: 5.66

----------
Entries annotated with measured IC50
Target: HER-2 (Homo sapiens)
Construct: the nucleotides encoding amino acids 679 to 1255 of HER-2; HIS6-Thrombin (His6 tag with thrombin site) (N)
Sequence (P04626 679-1255): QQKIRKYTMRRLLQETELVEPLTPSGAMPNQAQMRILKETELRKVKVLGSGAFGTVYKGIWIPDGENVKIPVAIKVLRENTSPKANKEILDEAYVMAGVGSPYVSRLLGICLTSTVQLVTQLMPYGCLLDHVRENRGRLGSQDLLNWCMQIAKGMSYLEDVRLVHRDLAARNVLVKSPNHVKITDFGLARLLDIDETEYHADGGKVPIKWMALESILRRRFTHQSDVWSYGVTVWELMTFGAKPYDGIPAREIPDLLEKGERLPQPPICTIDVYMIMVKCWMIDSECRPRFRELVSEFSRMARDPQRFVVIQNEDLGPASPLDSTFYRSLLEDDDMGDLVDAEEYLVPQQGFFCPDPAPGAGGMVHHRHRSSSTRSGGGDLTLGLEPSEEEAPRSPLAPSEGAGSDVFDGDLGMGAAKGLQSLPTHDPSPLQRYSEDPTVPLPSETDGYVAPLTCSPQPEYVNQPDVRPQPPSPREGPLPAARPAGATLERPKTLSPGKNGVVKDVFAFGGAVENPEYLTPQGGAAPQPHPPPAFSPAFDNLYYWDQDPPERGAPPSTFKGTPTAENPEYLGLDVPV
Assay: HER-2 Kinase Assay
Conditions: GST-HER2, 1 μM ATP
Write it as a number; the unit µM goes unstated.

CN1CCN(Cc2ccc(Nc3nc4ncnc(Nc5ccc(OCc6cccc(F)c6)c(Cl)c5)c4s3)cc2)CC1 [Cpd 68] :: 0.276

Turning now to a further compound:
Challenge: Param request: IC50 | system HER-2 (Homo sapiens) | item CN1CCN(Cc2ccc(Nc3nc4ncnc(Nc5ccc(Oc6ccccc6)cc5)c4s3)cc2)CC1 [Cpd 94]
Response given: 1.87

----------
Endpoint: pIC50. System: EGFR (Homo sapiens, UniProt P00533). Items follow.
Sequence (P00533 667-1210 limits assumed): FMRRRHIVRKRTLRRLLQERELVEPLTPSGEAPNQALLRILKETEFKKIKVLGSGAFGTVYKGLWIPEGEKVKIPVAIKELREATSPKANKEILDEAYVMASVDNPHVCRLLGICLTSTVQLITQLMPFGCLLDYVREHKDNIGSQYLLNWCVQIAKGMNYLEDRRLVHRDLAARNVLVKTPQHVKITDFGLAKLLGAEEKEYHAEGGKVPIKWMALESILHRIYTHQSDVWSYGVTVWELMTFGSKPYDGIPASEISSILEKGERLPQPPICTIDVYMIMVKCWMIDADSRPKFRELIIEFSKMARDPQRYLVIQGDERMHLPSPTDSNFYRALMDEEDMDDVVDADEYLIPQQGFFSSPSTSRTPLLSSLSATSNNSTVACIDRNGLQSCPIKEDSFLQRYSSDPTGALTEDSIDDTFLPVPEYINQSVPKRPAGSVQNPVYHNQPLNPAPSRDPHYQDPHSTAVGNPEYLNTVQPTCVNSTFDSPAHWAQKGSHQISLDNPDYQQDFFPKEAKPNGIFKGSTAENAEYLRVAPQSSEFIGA
For clarity, pIC50 is expressed as the negative log10 of concentration in mol/L.

COc1ccc(Nc2nc3ncnc(Nc4ccc(F)c(Cl)c4)c3s2)cn1 :: 7.71
C#Cc1cccc(Nc2ncnc3nc(Nc4ccc(NCCCN5CCOCC5)nc4)sc23)c1 :: 7.55
C#Cc1cccc(Nc2ncnc3nc(Nc4ccc(S(=O)(=O)N5CCOCC5)cc4)sc23)c1 :: 7.65
C#Cc1cccc(Nc2ncnc3nc(Nc4ccc(Cn5ccnc5CC)cc4)sc23)c1 :: 8.05
NS(=O)(=O)c1ccc(Nc2nc3ncnc(Nc4ccc(Br)c(Cl)c4)c3s2)cc1 :: 8.30

Challenge: Param request: pIC50 | system EGFR (Homo sapiens, UniProt P00533) | item "Clc1cccc(Nc2ncnc3nc(Nc4ccccc4)sc23)c1"
Response given: 7.57

Challenge: Param request: pIC50 | system EGFR (Homo sapiens, UniProt P00533) | item "CN1CCN(Cc2ccc(Nc3nc4ncnc(Nc5ccc(F)c(Cl)c5)c4s3)cc2)CC1"
Response given: 7.74

Challenge: Param request: pIC50 | system EGFR (Homo sapiens, UniProt P00533) | item "NS(=O)(=O)c1ccc(Nc2nc3ncnc(Nc4cccc(CN5CCOCC5)c4)c3s2)cc1"
Response given: 5.48

Challenge: Param request: pIC50 | system EGFR (Homo sapiens, UniProt P00533) | item "Clc1cccc(Nc2ncnc3nc(Nc4ccc(Cc5ccncc5)cc4)sc23)c1"
Response given: 7.74

Challenge: Param request: pIC50 | system EGFR (Homo sapiens, UniProt P00533) | item "Fc1ccc(Nc2ncnc3nc(Nc4cccc(CN5CCOCC5)c4)sc23)cc1Cl"
Response given: 6.92

Challenge: Param request: pIC50 | system EGFR (Homo sapiens, UniProt P00533) | item "Fc1ccc(Nc2ncnc3nc(Nc4ccc(CN5CCCC5)cc4)sc23)cc1Cl"
Response given: 8.38

Challenge: Param request: pIC50 | system EGFR (Homo sapiens, UniProt P00533) | item "CN(C)CCc1ccc(Nc2nc3ncnc(Nc4ccc(F)c(Cl)c4)c3s2)cc1"
Response given: 7.89
